# system.tested: Ghrelin/GHRP/GHS Receptor (Rattus norvegicus)
# Sequence (O08725 whole entry): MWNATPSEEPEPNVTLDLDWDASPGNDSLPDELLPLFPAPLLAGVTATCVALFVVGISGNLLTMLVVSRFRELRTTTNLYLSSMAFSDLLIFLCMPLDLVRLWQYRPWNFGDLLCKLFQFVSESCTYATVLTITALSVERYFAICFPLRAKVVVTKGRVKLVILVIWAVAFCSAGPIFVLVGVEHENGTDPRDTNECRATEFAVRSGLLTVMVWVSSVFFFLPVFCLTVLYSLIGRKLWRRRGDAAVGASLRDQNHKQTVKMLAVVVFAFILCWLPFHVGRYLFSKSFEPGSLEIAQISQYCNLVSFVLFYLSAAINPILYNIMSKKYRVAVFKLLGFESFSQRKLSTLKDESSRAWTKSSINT
# procedure.summary: In vitro GH release from cell culture of pituitary cells
# Type: cell-based
# Design: After dispersion, the cells were collected by centrifugation, wash with DMEM and placed into culture well; endogenous in cells; host or cells: dispersed primary rat anterior pituitary cells
# measurement.parameters: Table 8; peptide antagonist dosage 30 (head prints μg/i.v.)
Where no end group is shown, it is not given here. [ ]: non-standard residue; d: D form. Cha = N[C@@H](CC1CCCCC1)C(=O)O; dCha = N[C@H](CC1CCCCC1)C(=O)O; Nle = CCCC[C@H](N)C(=O)O; dPal = not defined here; Aib = CC(C)(N)C(=O)O
parameter.measured: Unstimulated Basal GH release from cell cultures of pituitary cells (ng/mL)
Numbers only, in ng/mL.

[
  {
    "substance": "His-DTrp-DTrp-Lys-NH2 (H[dW][dW]K-NH2; N-terminus assumed; SMILES NCCCC[C@H](NC(=O)[C@@H](Cc1c[nH]c2ccccc12)NC(=O)[C@@H](Cc1c[nH]c2ccccc12)NC(=O)[C@@H](N)Cc1c[nH]cn1)C(N)=O)",
    "assay.result": 615
  }
]

Quick batch: Unstimulated Basal GH release from cell cultures of pituitary cells for everything below.
1. DPhe-Trp-DPhe-Phe-Met-NH2 ([dF]W[dF]FM-NH2; N-terminus assumed; SMILES CSCC[C@H](NC(=O)[C@H](Cc1ccccc1)NC(=O)[C@@H](Cc1ccccc1)NC(=O)[C@H](Cc1c[nH]c2ccccc12)NC(=O)[C@H](N)Cc1ccccc1)C(N)=O)
2. αAib-DTrp-DcyclohexylAla-NH2 ([Aib]-[dW]-[dCha]-NH2; N-terminus assumed; SMILES CC(C)(N)C(=O)N[C@H](Cc1c[nH]c2ccccc12)C(=O)N[C@H](CC1CCCCC1)C(N)=O)
3. DPal-Phe-DTrp-Phe-Met-NH2 ([dPal]F[dW]FM-NH2; reading uncertain; also: printed as DPal-Phe-DTrp-Phe-Met-NH2)
4. DLys-Tyr-DTrp-DTrp-Phe-NH2 ([dK]Y[dW][dW]F-NH2; N-terminus assumed; SMILES NCCCC[C@@H](N)C(=O)N[C@@H](Cc1ccc(O)cc1)C(=O)N[C@H](Cc1c[nH]c2ccccc12)C(=O)N[C@H](Cc1c[nH]c2ccccc12)C(=O)N[C@@H](Cc1ccccc1)C(N)=O)
5. αAib-DTrp-DAla-cyclohexylAla-NH2 ([Aib][dW][dA][Cha]-NH2; N-terminus assumed; SMILES C[C@@H](NC(=O)[C@@H](Cc1c[nH]c2ccccc12)NC(=O)C(C)(C)N)C(=O)N[C@@H](CC1CCCCC1)C(N)=O)
6. DPhe-Ala-Phe-DPal-NH2 ([dF]AF[dPal]-NH2; reading uncertain; also: printed as DPhe-Ala-Phe-DPal-NH2)
7. DAla-DcyclohexylAla-Ala-Ala-Phe-DPhe-Nle-NH2 ([dA][dCha]AAF[dF][Nle]-NH2; N-terminus assumed; SMILES CCCC[C@H](NC(=O)[C@@H](Cc1ccccc1)NC(=O)[C@H](Cc1ccccc1)NC(=O)[C@H](C)NC(=O)[C@H](C)NC(=O)[C@@H](CC1CCCCC1)NC(=O)[C@@H](C)N)C(N)=O)

A)
[871, 492, 425, 744, 704, 161, 376]

These data points were gathered from patent US9724381B2.
